Every entry's value here was drawn from paper PMC12802172.

- System Name: P. falciparum cytoplasmic isoleucyl-tRNA synthetase (PfcIRS) (Plasmodium falciparum)
- Construct: full-length PfcIRS (1-1273), C-terminal TEV-cleavable His10-FLAG tag removed, Sf9 expressed
- Sequence (Q8IDZ9 entry or part of it): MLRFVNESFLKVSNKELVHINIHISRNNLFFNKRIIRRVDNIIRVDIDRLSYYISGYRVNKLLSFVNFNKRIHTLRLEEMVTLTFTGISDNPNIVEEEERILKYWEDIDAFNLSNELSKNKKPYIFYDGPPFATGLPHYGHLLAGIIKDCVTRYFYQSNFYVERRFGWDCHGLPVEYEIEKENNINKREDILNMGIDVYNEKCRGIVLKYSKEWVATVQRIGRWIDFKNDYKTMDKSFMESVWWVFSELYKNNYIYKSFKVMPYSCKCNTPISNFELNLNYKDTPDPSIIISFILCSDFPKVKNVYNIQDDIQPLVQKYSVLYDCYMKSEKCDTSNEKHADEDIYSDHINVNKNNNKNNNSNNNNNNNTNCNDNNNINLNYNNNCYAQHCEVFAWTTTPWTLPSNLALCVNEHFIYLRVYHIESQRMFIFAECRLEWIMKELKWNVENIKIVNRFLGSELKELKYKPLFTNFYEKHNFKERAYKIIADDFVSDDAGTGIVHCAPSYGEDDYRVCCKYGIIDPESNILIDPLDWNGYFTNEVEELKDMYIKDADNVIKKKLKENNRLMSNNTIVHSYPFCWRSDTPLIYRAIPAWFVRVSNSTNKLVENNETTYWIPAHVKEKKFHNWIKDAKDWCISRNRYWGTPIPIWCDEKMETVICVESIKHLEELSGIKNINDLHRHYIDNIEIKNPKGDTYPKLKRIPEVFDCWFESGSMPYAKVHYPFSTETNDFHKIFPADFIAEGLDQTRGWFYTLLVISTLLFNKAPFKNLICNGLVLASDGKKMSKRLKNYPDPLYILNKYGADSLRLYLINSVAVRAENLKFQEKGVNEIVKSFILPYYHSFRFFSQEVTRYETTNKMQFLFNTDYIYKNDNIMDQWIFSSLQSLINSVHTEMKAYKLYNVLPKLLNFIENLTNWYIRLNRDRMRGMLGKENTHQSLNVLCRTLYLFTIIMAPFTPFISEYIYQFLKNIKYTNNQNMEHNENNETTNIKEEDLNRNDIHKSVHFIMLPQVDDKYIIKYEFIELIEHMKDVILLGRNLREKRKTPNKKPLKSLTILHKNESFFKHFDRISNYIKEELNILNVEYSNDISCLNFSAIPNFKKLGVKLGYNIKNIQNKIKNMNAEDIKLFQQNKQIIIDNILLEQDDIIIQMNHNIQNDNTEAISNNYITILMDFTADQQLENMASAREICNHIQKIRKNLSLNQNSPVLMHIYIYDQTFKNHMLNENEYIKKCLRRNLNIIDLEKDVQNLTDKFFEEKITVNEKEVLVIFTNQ
- Method: AMP-Glo enzymatic assay with recombinant PfcIRS
Readout: IC50 (µM)
API: value field is a number in µM; no unit string.

Consider the compound shown here: c1ccn2c(Sc3ncnc4sccc34)ncc2c1 What is its recorded IC50?
6.59

====

- System: P. falciparum Dd2
- Construct: Dd2
- Method: microbe, parasite or virus in culture
- Set-up: species or system P. falciparum in human erythrocytes; asexual blood-stage growth inhibition, synchronized ring-stage parasites, SYBR Green I fluorescence
- Run Parameters: Plasmodium falciparum, DD2, Erythrocyte, 72 h; initial laboratory strain experiment (Table S1); read-out: P. falciparum asexual blood stage activity (IC50 uM) / Dd2
Readout: IC50 (µM)
API: value field is a number in µM; no unit string.

Cc1cccc(C)c1CNc1cccc(-c2nc(C)c(C)[nH]2)c1 : 0.851
Cc1cccc2[nH]c(-c3cccc(-c4cccc(NC(=O)CCc5c[nH]cn5)c4)c3)nc12 : 0.609
CC(C)(CN)c1cc(-c2ccc(Cl)c(O)c2)c(-c2ccncc2)o1 : 0.414
c1ccn2c(Sc3ncnc4sccc34)ncc2c1 : 0.45
COc1ccc(-n2ncc(C(=O)N3CCC4(C3)C(=O)N(c3ccccc3)c3ccccc34)c2C)cc1 (stereo not drawn) : 0.216
Cc1cccc2[nH]c(-c3ccc(-c4cccc(NC(=O)C(C)CN5CCN(C)CC5)c4)cc3)nc12 (stereo not drawn) : 1.4
CCOc1ccc2nc(NC(=O)c3csnn3)sc2c1 : 0.206
CC(C)(C)c1cc(Cl)cc(C(=O)Nc2cc([N+](=O)[O-])ccc2Cl)c1O : 3.17

# evaluate next
Reported IC50 for P. falciparum Dd2, given COc1cc(-c2[nH]c(C(C)(C)CN)nc2-c2ccncc2)ccc1Br ?
0.244

====

- Tested on: Plasmodium falciparum GB4
- Construct: GB4
- Method: microbe, parasite or virus in culture
- Parameters: species or system P. falciparum in human erythrocytes; asexual blood-stage growth inhibition, synchronized ring-stage parasites, SYBR Green I fluorescence
- Run Parameters: Erythrocyte, 72 h, read-out: P. falciparum asexual blood stage activity (IC50 uM) / GB4 / IC50
Readout: IC50
Give the number first and the unit second.

Worked set:
CC(C)(CN)c1cc(-c2ccc(Cl)c(O)c2)c(-c2ccncc2)o1 [TCMDC-141334] : 0.974 µM
COc1ccc(-n2ncc(C(=O)N3CCC4(C3)C(=O)N(c3ccccc3)c3ccccc34)c2C)cc1 (stereo not drawn) [TCMDC-134122] : 1.67 µM
Cc1cccc2[nH]c(-c3ccc(-c4cccc(NC(=O)C(C)CN5CCN(C)CC5)c4)cc3)nc12 (stereo not drawn) [TCMDC-137144] : 1.94 µM

Consider the compound shown here: Cc1cccc2[nH]c(-c3cccc(-c4cccc(NC(=O)CCc5c[nH]cn5)c4)c3)nc12 [TCMDC-132158] What is its recorded IC50?
1.72 µM

Consider the compound shown here: Cc1cccc(C)c1CNc1cccc(-c2nc(C)c(C)[nH]2)c1 [TCMDC-133434] What is its recorded IC50?
0.924 µM

Consider the compound shown here: CC(C)(C)c1cc(Cl)cc(C(=O)Nc2cc([N+](=O)[O-])ccc2Cl)c1O [TCMDC-142214] What is its recorded IC50?
3.08 µM

Consider the compound shown here: COc1cc(-c2[nH]c(C(C)(C)CN)nc2-c2ccncc2)ccc1Br [TCMDC-140674] What is its recorded IC50?
1.85 µM

Consider the compound shown here: c1ccn2c(Sc3ncnc4sccc34)ncc2c1 [TCMDC-124602] What is its recorded IC50?
0.651 µM

Consider the compound shown here: CCOc1ccc2nc(NC(=O)c3csnn3)sc2c1 [TCMDC-125075] What is its recorded IC50?
0.16 µM

====

- Test system: P. falciparum 3D7
- Construct: 3D7
- Method: microbe, parasite or virus in culture
- Design: species or system P. falciparum in human erythrocytes; asexual blood-stage growth inhibition, synchronized ring-stage parasites, SYBR Green I fluorescence
- Run Parameters: Plasmodium falciparum, 3D7, Erythrocyte, 72 h; initial laboratory strain experiment (Table S1); read-out: P. falciparum asexual blood stage activity (IC50 uM) / 3D7
Classes (IC50): LOW: < 0.5 µM; MEDIUM: ≥ 0.5 µM and < 0.9 µM; HIGH: ≥ 0.9 µM

Consider the worked cases shown below.
COc1ccc(-n2ncc(C(=O)N3CCC4(C3)C(=O)N(c3ccccc3)c3ccccc34)c2C)cc1 (stereo not drawn) [TCMDC-134122] : MEDIUM
COc1cc(-c2[nH]c(C(C)(C)CN)nc2-c2ccncc2)ccc1Br [TCMDC-140674] : MEDIUM
CC(C)(C)c1cc(Cl)cc(C(=O)Nc2cc([N+](=O)[O-])ccc2Cl)c1O [TCMDC-142214] : HIGH

Lab log: Cc1cccc2[nH]c(-c3cccc(-c4cccc(NC(=O)CCc5c[nH]cn5)c4)c3)nc12 [TCMDC-132158] — assign IC50 category
MEDIUM

Lab log: CCOc1ccc2nc(NC(=O)c3csnn3)sc2c1 [TCMDC-125075] — assign IC50 category
LOW

Lab log: CC(C)(CN)c1cc(-c2ccc(Cl)c(O)c2)c(-c2ccncc2)o1 [TCMDC-141334] — assign IC50 category
LOW

====

- System: P. falciparum Dd2
- Construct: Dd2
- Method: microbe, parasite or virus in culture
- Design: species or system P. falciparum in human erythrocytes; asexual blood-stage growth inhibition, synchronized ring-stage parasites, SYBR Green I fluorescence
- Run Parameters: Plasmodium falciparum, DD2, Erythrocyte, 72 h; strain panel experiment (Table S2); read-out: P. falciparum asexual blood stage activity (IC50 uM) / Dd2 / IC50
Readout: IC50 (µM)
API: value field is a number in µM; no unit string.

Worked set:
Cc1cccc2[nH]c(-c3cccc(-c4cccc(NC(=O)CCc5c[nH]cn5)c4)c3)nc12 [TCMDC-132158] : 0.932
COc1ccc(-n2ncc(C(=O)N3CCC4(C3)C(=O)N(c3ccccc3)c3ccccc34)c2C)cc1 (stereo not drawn) [TCMDC-134122] : 0.394
Cc1cccc(C)c1CNc1cccc(-c2nc(C)c(C)[nH]2)c1 [TCMDC-133434] : 1.74
CC(C)(C)c1cc(Cl)cc(C(=O)Nc2cc([N+](=O)[O-])ccc2Cl)c1O [TCMDC-142214] : 2.88
c1ccn2c(Sc3ncnc4sccc34)ncc2c1 [TCMDC-124602] : 0.288
CC(C)(CN)c1cc(-c2ccc(Cl)c(O)c2)c(-c2ccncc2)o1 [TCMDC-141334] : 0.485
CCOc1ccc2nc(NC(=O)c3csnn3)sc2c1 [TCMDC-125075] : 0.192
COc1cc(-c2[nH]c(C(C)(C)CN)nc2-c2ccncc2)ccc1Br [TCMDC-140674] : 0.341

# evaluate next
Consider the compound shown here: Cc1cccc2[nH]c(-c3ccc(-c4cccc(NC(=O)C(C)CN5CCN(C)CC5)c4)cc3)nc12 (stereo not drawn) [TCMDC-137144] What is its recorded IC50?
1.39

====

- Tested on: P. falciparum 3D7
- Construct: 3D7
- Method: microbe, parasite or virus in culture
- Set-up: species or system P. falciparum in human erythrocytes; asexual blood-stage growth inhibition, synchronized ring-stage parasites, SYBR Green I fluorescence
- Run Parameters: Plasmodium falciparum, 3D7, Erythrocyte, 72 h; initial laboratory strain experiment (Table S1); read-out: P. falciparum asexual blood stage activity (IC50 uM) / 3D7
- Experimental: Compound dose-response assays were performed in flat-bottom 96-well plates. […] After 72 h of incubation, parasite growth was measured by lysing the cells with a 2 × lysis buffer containing 10 mM Tris-HCl, 5 mM EDTA, 0.1% (wt/vol) saponin, and 1% (vol/vol) Triton X-100, supplemented with 2 × SYBR Green I (Molecular Probes). Fluorescence was recorded using a FluorStar Omega v5.11 plate reader. […]
Readout: IC50 (µM)
API: value field is a number in µM; no unit string.

Worked set:
Cc1cccc2[nH]c(-c3ccc(-c4cccc(NC(=O)C(C)CN5CCN(C)CC5)c4)cc3)nc12 (stereo not drawn) [TCMDC-137144] : 0.912
c1ccn2c(Sc3ncnc4sccc34)ncc2c1 [TCMDC-124602] : 0.502

Reported IC50 for P. falciparum 3D7, given Cc1cccc(C)c1CNc1cccc(-c2nc(C)c(C)[nH]2)c1 [TCMDC-133434] ?
0.89
